# Tested on: H3255
# procedure_details: relative viability (nuclei count vs DMSO), 5 days (fraction); higher = more cells survive
# measurement_conditions: first compound 6.325 µM
reported_property: relative viability
# answer = number (no unit)

// lookup relative viability for Cc1csc(=NC2CCCCC2)n1/N=C/c1ccc(O)c(O)c1O [MIM1] + COc1cccc2cc(-c3nc([C@H]4CC[C@H](C(=O)O)CC4)n4ncnc(N)c34)[nH]c12 [OSI-027] (partner 0.5 µM)
0.519

Recorded relative viability of Cc1csc(=NC2CCCCC2)n1/N=C/c1ccc(O)c(O)c1O [MIM1] + COc1cc2c(Oc3ccc(NC(=O)C4(C(=O)Nc5ccc(F)cc5)CC4)cc3F)ccnc2cc1OCCCN1CCOCC1 [Foretinib] (partner 0.25 µM) , please.
0.724
